Values were extracted from patent US20140056903A1.

Target: T1, monkey GFRα3 expressed with a C-terminal myc-myc-hexahistidine tag (monkey (Mf), UniProt O60609 32-374 (human entry), limits assumed)
T1 construct: also called MfGFRα3-mmh; MfGFRα3-mmH
T1 chain: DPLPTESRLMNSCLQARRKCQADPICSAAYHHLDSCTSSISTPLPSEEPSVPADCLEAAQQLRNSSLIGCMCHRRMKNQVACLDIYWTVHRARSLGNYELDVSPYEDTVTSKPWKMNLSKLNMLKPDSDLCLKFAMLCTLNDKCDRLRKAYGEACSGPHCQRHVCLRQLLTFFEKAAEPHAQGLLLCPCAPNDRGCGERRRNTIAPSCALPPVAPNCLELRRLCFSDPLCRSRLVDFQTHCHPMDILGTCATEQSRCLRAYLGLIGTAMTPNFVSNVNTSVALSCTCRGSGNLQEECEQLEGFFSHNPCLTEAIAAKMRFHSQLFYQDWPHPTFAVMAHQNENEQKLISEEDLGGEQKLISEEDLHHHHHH
Assay: SPR, Ab captured, 25C
Description: […]
measured-metric: kon (M⁻¹ s⁻¹)
Answers are plain numbers, in M⁻¹ s⁻¹.

Request the reported kon associated with H4H2346S (antibody, human IgG4, V domains shown, human IgG4 Fc (H4H)) VH: QVQLVESGGGVVQPGRSLRLSCAASGFSFSDYVMHWVRQAPGKGLEWVASIWFDGSNEFYADSVKGRFTISRDNSKNTLFLQMNSLRAEDTAVYYCAKKGVLVATSAFDIWGQGTMVTVSS VL: EIVMTQSPSSLSASVGDRVTITCRASQSINNYLNWYHQKPGKAPKLLIYAASSLQSGVPSRFSGSGSGTDYTLTISSLQPEDFGNYYCQQSYRTSMYTFGQGTKVEIK
108000

For the next question, use this binder.
What kon value was documented for this binder, H4H2357S (antibody, human IgG4, V domains shown, human IgG4 Fc (H4H)) VH: EVQLVESGGGLVQPGGSLRLSCAASTFTFSSYAMTWVRQAPGKGLEWVSSISGSGDSTYYADSVKGRFTISRDNSKNTLFLQMNSLRAEDTAVYYCAKKDGPGRYYVRYGMDVWGQGTTVTVSS VL: DIQMTQSPSSVSASVGDRVTITCRASQGISSWLAWYQQKPGKAPKLLIYTTSSLQSGVPSRFSGSGSGTDFTLTISSLQPEDFATYYCQQANSFPLTFGGGTKVDIK ?
140000
